// provenance: patent US4294833A

Documented LD50 at 168 h across a set of molecules
test_method_notes: Acute toxicity, intraperitoneal
protocol_conditions: mouse, in vivo, ip, male Swiss mice, intraperitoneal, 7 days observation; preliminary, by graphic interpolation; read-out: acute toxicity (LD50 / DL50)
Please reply with the bare figure in mg/kg and do not write the unit itself.

[ask] Tell me the measured LD50 at 168 h of CC(C)(C)COc1c(Cl)cc(C(=O)NCc2cccnc2)cc1C(=O)NCc1cccnc1 , please.
[reply] 215

* * *

Test system: CaCl2-induced plasma coagulation
test_method_notes: Anticoagulant activity on PRP, Hartert's thromboelastograph
Assay type: in vivo, New Zealand rabbits
protocol_conditions: Oryctolagus cuniculus, ip, percent increase of total time for coagulum formation (r+k) vs before treatment; 25 mg/kg intraperitoneal, rabbits; read-out: anticoagulant activity (AC)
measure: change in vivo at 25 mg/kg (%)
Please reply with the bare figure in % and do not write the unit itself.

// worked examples, change in vivo at 25 mg/kg included
CC(C)(C)Oc1ccc(C(=O)NCc2cccnc2)cc1C(=O)NCc1cccnc1 ... 13.6
C=CCOc1c(Cl)cc(C(=O)NCc2cccnc2)cc1C(=O)NCc1cccnc1 ... 15.5
CC=COc1c(Cl)cc(C(=O)N(CCCCC)Cc2cccnc2)cc1C(=O)N(CCCCC)Cc1cccnc1 ... 15.7

[ask] Tell me the measured change in vivo at 25 mg/kg of CC(C)Oc1ccc(C(=O)NCc2cccnc2)cc1C(=O)NCc1cccnc1 , please.
[reply] 12.7

* * *

Documented ED50 across a set of compounds
Test system: platelet aggregation induced by thrombin
test_method_notes: Platelet aggregation inhibitory activity in vivo (Born aggregometer), thrombin-induced
Design: species or system New Zealand rabbits
protocol_conditions: Oryctolagus cuniculus, Platelet, ip, dose for 50% inhibition of thrombin-induced aggregation curve; rabbits, intraperitoneal, blood 2, 4 and 6 hours after injection; read-out: platelet antiaggregant activity (AAP), DI50, Thrombin
Write the numeric value and append its unit.

C=CCCOc1ccc(C(=O)NCc2cccnc2)cc1C(=O)NCc1cccnc1 [Example 8] ... 25.7 mg/kg

[ask] Tell me the measured ED50 of CCN(Cc1cccnc1)C(=O)c1ccc(OC)c(C(=O)N(CC)Cc2cccnc2)c1 [Example 40] , please.
[reply] 42.3 mg/kg

[ask] Tell me the measured ED50 of CCCN(Cc1cccnc1)C(=O)c1ccc(OC)c(C(=O)N(CCC)Cc2cccnc2)c1 [Example 41] , please.
[reply] 46.5 mg/kg

[ask] Tell me the measured ED50 of C=C(C)Oc1c(Cl)cc(C(=O)N(C)Cc2ccncc2)cc1C(=O)N(C)Cc1ccncc1 [Example 68] , please.
[reply] 30 mg/kg

[ask] Tell me the measured ED50 of COc1c(Cl)cc(C(=O)NCc2ccncc2)cc1C(=O)NCc1ccncc1 [Example 66] , please.
[reply] 42.5 mg/kg

[ask] Tell me the measured ED50 of CCCCOc1ccc(C(=O)NCc2cccnc2)cc1C(=O)NCc1cccnc1 [Example 2] , please.
[reply] 18.2 mg/kg

[ask] Tell me the measured ED50 of CC(C)(C)COc1c(C(=O)NCc2cccnc2)cc(C(=O)NCc2cccnc2)cc1[N+](=O)[O-] [Example 35] , please.
[reply] 29.7 mg/kg

[ask] Tell me the measured ED50 of CC(C)CCOc1ccc(C(=O)NCc2cccnc2)cc1C(=O)NCc1cccnc1 [Example 13] , please.
[reply] 27.1 mg/kg

* * *

Test system: thrombin-induced coagulation of platelet rich plasma
test_method_notes: Antithrombin activity on PRP, Hartert's thromboelastograph
Type: in vivo, New Zealand rabbits
protocol_conditions: Oryctolagus cuniculus, Platelet, ip, percent decrease of index ma/[r+k] vs before treatment; 20 mg/kg intraperitoneal, rabbits
Label Yes when inhibition in vivo at 20 mg/kg is at or above 40%; anything below gets No.

CC(C)Oc1ccc(C(=O)NCc2ccncc2)cc1C(=O)NCc1ccncc1 [Example 62] ... No
COc1cc(C(=O)NCc2cccnc2)cc(C(=O)NCc2cccnc2)c1OC1CCC1 [Example 19] ... No
CCOc1ccc(C(=O)N(CCC(C)C)Cc2cccnc2)cc1C(=O)N(CCC(C)C)Cc1cccnc1 [Example 45] ... No
COc1cc(C(=O)NCc2cccnc2)cc(C(=O)NCc2cccnc2)c1O [Example 33] ... No
COc1cc(C(=O)NCc2cccnc2)cc(C(=O)NCc2cccnc2)c1OC1CCCCC1 [Example 21] ... No
COc1c(Cl)cc(C(=O)NCc2cccnc2)cc1C(=O)NCc1cccnc1 [Example 23] ... No

[ask] Dear colleague, could you confirm whether CCCCN(Cc1cccnc1)C(=O)c1ccc(OC)c(C(=O)N(CCCC)Cc2cccnc2)c1 [Example 42] has inhibition in vivo at 20 mg/kg at or above 40%?
[reply] No

[ask] Dear colleague, could you confirm whether CC(C)Oc1ccc(C(=O)NCc2cccnc2)cc1C(=O)NCc1cccnc1 [Example 12] has inhibition in vivo at 20 mg/kg at or above 40%?
[reply] No

[ask] Dear colleague, could you confirm whether C=CCOc1ccc(C(=O)NCc2ccncc2)cc1C(=O)NCc1ccncc1 [Example 61] has inhibition in vivo at 20 mg/kg at or above 40%?
[reply] Yes

* * *

test_method_notes: Acute toxicity, intraperitoneal
protocol_conditions: mouse, in vivo, ip, male Swiss mice, intraperitoneal, 7 days observation; preliminary, by graphic interpolation; read-out: acute toxicity (LD50 / DL50)
measure: LD50 at 168 h (mg/kg)
Please reply with the bare figure in mg/kg and do not write the unit itself.

// worked examples, LD50 at 168 h included
C=CCCCCOc1ccc(C(=O)NCc2cccnc2)cc1C(=O)NCc1cccnc1 ... 194
CCCCCCCOc1ccc(C(=O)NCc2cccnc2)cc1C(=O)NCc1cccnc1 ... 181
CCC(CC)Oc1c(Cl)cc(C(=O)NCc2cccnc2)cc1C(=O)NCc1cccnc1 ... 198
CCCCCCOc1ccc(C(=O)NCc2cccnc2)cc1C(=O)NCc1cccnc1 ... 175
COc1cc(C(=O)NCc2cccnc2)cc(C(=O)NCc2cccnc2)c1OC1CCCCC1 ... 378

[ask] Tell me the measured LD50 at 168 h of C=C(C)COc1ccc(C(=O)N(CCC)Cc2ccncc2)cc1C(=O)N(CCC)Cc1ccncc1 , please.
[reply] 360

[ask] Tell me the measured LD50 at 168 h of COc1cc(C(=O)NCc2cccnc2)cc(C(=O)NCc2cccnc2)c1OCC(C)(C)C , please.
[reply] 378

[ask] Tell me the measured LD50 at 168 h of COc1cc(C(=O)NCc2cccnc2)cc(C(=O)NCc2cccnc2)c1O , please.
[reply] 570

[ask] Tell me the measured LD50 at 168 h of CCOc1ccc(C(=O)N(CCCC(C)C)Cc2cccnc2)cc1C(=O)N(CCCC(C)C)Cc1cccnc1 , please.
[reply] 451

[ask] Tell me the measured LD50 at 168 h of CC=COc1c(Cl)cc(C(=O)N(CCC(C)C)Cc2cccnc2)cc1C(=O)N(CCC(C)C)Cc1cccnc1 , please.
[reply] 193

* * *

Tested on: CaCl2-induced plasma coagulation
test_method_notes: Anticoagulant activity on PRP, Hartert's thromboelastograph
Format: in vivo, New Zealand rabbits
protocol_conditions: Oryctolagus cuniculus, ip, percent increase of total time for coagulum formation (r+k) vs before treatment; 25 mg/kg intraperitoneal, rabbits; read-out: anticoagulant activity (AC)
measure: change in vivo at 25 mg/kg (%)
Please reply with the bare figure in % and do not write the unit itself.

C=CCCOc1ccc(C(=O)NCc2cccnc2)cc1C(=O)NCc1cccnc1 ... 14.2
COc1ccc(C(=O)NCc2ccncc2)cc1C(=O)NCc1ccncc1 ... 18.2

[ask] Tell me the measured change in vivo at 25 mg/kg of CC=CCOc1ccc(C(=O)N(C)Cc2ccncc2)cc1C(=O)N(C)Cc1ccncc1 , please.
[reply] 14.2

[ask] Tell me the measured change in vivo at 25 mg/kg of CC(C)(C)COc1ccc(C(=O)NCc2cccnc2)cc1C(=O)NCc1cccnc1 , please.
[reply] 13.6

* * *

Test system: CaCl2-induced plasma coagulation
test_method_notes: Anticoagulant activity on PRP, Hartert's thromboelastograph
Assay type: in vivo, New Zealand rabbits
protocol_conditions: Oryctolagus cuniculus, ip, percent increase of total time for coagulum formation (r+k) vs before treatment; 25 mg/kg intraperitoneal, rabbits; read-out: anticoagulant activity (AC)
measure: change in vivo at 25 mg/kg (%)
Please reply with the bare figure in % and do not write the unit itself.

// worked examples, change in vivo at 25 mg/kg included
C=C(C)COc1ccc(C(=O)N(CCC)Cc2ccncc2)cc1C(=O)N(CCC)Cc1ccncc1 [Example 70] ... 18.9
CCCOc1ccc(C(=O)NCc2cccnc2)cc1C(=O)NCc1cccnc1 [Example 1] ... 21.5
CCOc1ccc(C(=O)N(Cc2cccnc2)CC(C)C)cc1C(=O)N(Cc1cccnc1)CC(C)C [Example 44] ... 19.3
CC(C)=COc1ccc(C(=O)NCc2ccncc2)cc1C(=O)NCc1ccncc1 [Example 65] ... 23.8
CC(C)Oc1ccc(C(=O)NCc2ccncc2)cc1C(=O)NCc1ccncc1 [Example 62] ... 12

[ask] Tell me the measured change in vivo at 25 mg/kg of O=C(NCc1cccnc1)c1cc(C(=O)NCc2cccnc2)c(O)c([N+](=O)[O-])c1 [Example 31] , please.
[reply] 13.6

[ask] Tell me the measured change in vivo at 25 mg/kg of CCCCCCOc1ccc(C(=O)NCc2ccncc2)cc1C(=O)NCc1ccncc1 [Example 60] , please.
[reply] 22.2

[ask] Tell me the measured change in vivo at 25 mg/kg of CC=CCOc1ccc(C(=O)NCc2cccnc2)cc1C(=O)NCc1cccnc1 [Example 11] , please.
[reply] 13.5

[ask] Tell me the measured change in vivo at 25 mg/kg of CCCCCCCOc1ccc(C(=O)NCc2cccnc2)cc1C(=O)NCc1cccnc1 [Example 5] , please.
[reply] 18

[ask] Tell me the measured change in vivo at 25 mg/kg of CCOc1ccc(C(=O)N(CCCC(C)C)Cc2cccnc2)cc1C(=O)N(CCCC(C)C)Cc1cccnc1 [Example 46] , please.
[reply] 15.5

[ask] Tell me the measured change in vivo at 25 mg/kg of CC(C)=COc1ccc(C(=O)NCc2cccnc2)cc1C(=O)NCc1cccnc1 [Example 55] , please.
[reply] 19.2

[ask] Tell me the measured change in vivo at 25 mg/kg of COc1c(Cl)cc(C(=O)N(Cc2ccncc2)C(C)C)cc1C(=O)N(Cc1ccncc1)C(C)C [Example 71] , please.
[reply] 25.6

[ask] Tell me the measured change in vivo at 25 mg/kg of CC=COc1c(Cl)cc(C(=O)N(Cc2cccnc2)C(CC)CC)cc1C(=O)N(Cc1cccnc1)C(CC)CC [Example 50] , please.
[reply] 13.8

[ask] Tell me the measured change in vivo at 25 mg/kg of CCCCCCOc1ccc(C(=O)NCc2cccnc2)cc1C(=O)NCc1cccnc1 [Example 4] , please.
[reply] 19.5

[ask] Tell me the measured change in vivo at 25 mg/kg of CC(C)COc1ccc(C(=O)NCc2cccnc2)cc1C(=O)NCc1cccnc1 [Example 15] , please.
[reply] 17.6

[ask] Tell me the measured change in vivo at 25 mg/kg of COc1ccc(C(=O)N(Cc2cccnc2)C(C)C)cc1C(=O)N(Cc1cccnc1)C(C)C [Example 43] , please.
[reply] 20.7

[ask] Tell me the measured change in vivo at 25 mg/kg of COc1cc(C(=O)NCc2cccnc2)cc(C(=O)NCc2cccnc2)c1OC1CCCCC1 [Example 21] , please.
[reply] 12.5

[ask] Tell me the measured change in vivo at 25 mg/kg of CC(C)CCOc1ccc(C(=O)NCc2ccncc2)cc1C(=O)NCc1ccncc1 [Example 63] , please.
[reply] 22.6
